For each of the molecules below, state its pIC50.
biological target: JAK1 (Homo sapiens (Human), UniProt P23458); assay: Purified kinase assay (Z'-LYTE), JAK1; type: biochemical; conditions: Table 1; read-out: JAK1 IC50
Sequence (P23458 875-1153): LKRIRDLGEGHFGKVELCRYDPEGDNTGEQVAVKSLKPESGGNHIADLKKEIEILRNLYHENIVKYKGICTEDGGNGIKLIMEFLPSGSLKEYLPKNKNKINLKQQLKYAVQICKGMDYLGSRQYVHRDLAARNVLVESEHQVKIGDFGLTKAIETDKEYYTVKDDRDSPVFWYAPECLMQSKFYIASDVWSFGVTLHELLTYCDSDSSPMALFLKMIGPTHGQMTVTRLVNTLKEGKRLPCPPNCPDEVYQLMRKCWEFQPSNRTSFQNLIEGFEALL
pIC50: −log10 of the molar value.

These solved cases illustrate the format of a correct answer.
| Query Smiles | Tgt | Measurement Name | Data Value |
| --- | --- | --- | --- |
| CS(=O)(=O)Cc1ccc(Nc2cc(NCc3cccc4ccsc34)c(C(N)=O)nn2)cc1 | JAK1 (Homo sapiens (Human), UniProt P23458) | pIC50 | 6.00 to 7.00 |
| CC(=O)N1CCN(c2ccc(Nc3cc(NCc4ccccn4)c(C(N)=O)nn3)cc2)CC1 | JAK1 (Homo sapiens (Human), UniProt P23458) | pIC50 | < 6.00 |
| CCC(=O)N1CCN(c2ccc(Nc3cc(NCc4cccc(F)c4F)c(C(N)=O)nn3)cc2)CC1 | JAK1 (Homo sapiens (Human), UniProt P23458) | pIC50 | < 6.00 |
| CC(=O)N(C)c1ccc(Nc2cc(NCc3cccc(F)c3)c(C(N)=O)nn2)cc1 | JAK1 (Homo sapiens (Human), UniProt P23458) | pIC50 | < 6.00 |
| CN(C)C(=O)N1CCC(Cn2cc(Nc3cc(NCc4cccc(F)c4F)c(C(N)=O)nn3)cn2)CC1 | JAK1 (Homo sapiens (Human), UniProt P23458) | pIC50 | < 6.00 |

Could you now look at the following molecule, please?
Q. What value of pIC50 has been reported for the following molecule? CS(=O)(=O)Cc1ccc(Nc2cc(NCc3c(F)cccc3F)c(C(N)=O)nn2)cc1
A. 6.00 to 7.00
